The reported measurements were obtained from PubChem BioAssay (Tox21).

# ASSAY_REMARKS: A CellTox Green Cytotoxicity Assay to monitor cytotoxicity in HEK293 cells - 8 hour (AID 1224884); note: nearly all actives have a fitted effect of over 35% in size
# SETTINGS: CellTox Green fluorescence; series mostly up to 76.8 µM
Inconclusive results are not listed. Active and inactive are the calls of the source. Calls come from the whole dose curve; as a rule, active = well fitted activation curve with a large enough effect in the repeat runs; inconclusive = weak or mixed curves; inactive = flat fitted curve, though single readings scatter.
Log the outcome using a class from yes (1) = active, no (0) = inactive

Here are 5 compounds together with their reported answers.
{"COMPOUND": "COc1cc(CC(C)N)c(OC)cc1Br (centres undefined)", "GROUP_LABEL": "no (0)"}
{"COMPOUND": "Cc1nc(N(C)C)nc(OC(=O)N(C)C)c1C", "GROUP_LABEL": "no (0)"}
{"COMPOUND": "CCCC[N+](CCCC)(CCCC)CCCC", "GROUP_LABEL": "no (0)"}
{"COMPOUND": "CCCCCCCCCCCC[N+](C)(C)CCOc1ccccc1", "GROUP_LABEL": "yes (1)"}
{"COMPOUND": "CCOC(C(=O)OCCN(C)C)(c1ccccc1)c1ccccc1", "GROUP_LABEL": "no (0)"}

Would you mind telling me which call this test gave CC1(C)CC(=O)CC(C)(C)N1[O] ?
no (0)

Entry to check: CN1CC[C@]23c4c5ccc(O)c4O[C@H]2[C@@H](O)CC[C@H]3[C@H]1C5
no (0)

Entry to check: CCN(C(C)=O)c1cccc(-c2ccnc3c(C#N)cnn23)c1
no (0)

Entry to check: CC(Cc1ccccc1)NCc1ccccc1Cl (centres undefined)
no (0)

Entry to check: CC(=O)OC(c1ccccc1)C(Cl)(Cl)Cl (centres undefined)
yes (1)

Entry to check: C1CCNCC1
no (0)

Entry to check: C#CC(O)(C=CCl)CC (centres undefined)
no (0)

Entry to check: O=C(O)COc1cc(Cl)c(Cl)cc1Cl
no (0)

Entry to check: CCC1CCC(=O)O1 (centres undefined)
no (0)
